TEST METHOD NOTES: AUC(0 to infinity) in Sprague-Dawley rat at 4 mg/kg, ip measured at 0.08 to 8 hrs by UHPLC-MS/MS analysis
Format: ADME, organism-based
Set-up: dose 4 mg/kg, time 0.08-8 hrs, route ip
ASSAY CONTEXT: in vivo
REPORTED METRIC: AUC(0-inf)

[[record]]
structure_as_smiles = "CCN1CCN(c2ccc(Nc3ncc(C)c(Nc4ccc5cn[nH]c5c4)n3)cc2OC)CC1.Cl"
endpoint_value = "211 ng·h/mL"


###

STUDY SYSTEM: Platelet-derived growth factor receptor beta (Homo sapiens, UniProt P09619)
Sequence (P09619 whole entry): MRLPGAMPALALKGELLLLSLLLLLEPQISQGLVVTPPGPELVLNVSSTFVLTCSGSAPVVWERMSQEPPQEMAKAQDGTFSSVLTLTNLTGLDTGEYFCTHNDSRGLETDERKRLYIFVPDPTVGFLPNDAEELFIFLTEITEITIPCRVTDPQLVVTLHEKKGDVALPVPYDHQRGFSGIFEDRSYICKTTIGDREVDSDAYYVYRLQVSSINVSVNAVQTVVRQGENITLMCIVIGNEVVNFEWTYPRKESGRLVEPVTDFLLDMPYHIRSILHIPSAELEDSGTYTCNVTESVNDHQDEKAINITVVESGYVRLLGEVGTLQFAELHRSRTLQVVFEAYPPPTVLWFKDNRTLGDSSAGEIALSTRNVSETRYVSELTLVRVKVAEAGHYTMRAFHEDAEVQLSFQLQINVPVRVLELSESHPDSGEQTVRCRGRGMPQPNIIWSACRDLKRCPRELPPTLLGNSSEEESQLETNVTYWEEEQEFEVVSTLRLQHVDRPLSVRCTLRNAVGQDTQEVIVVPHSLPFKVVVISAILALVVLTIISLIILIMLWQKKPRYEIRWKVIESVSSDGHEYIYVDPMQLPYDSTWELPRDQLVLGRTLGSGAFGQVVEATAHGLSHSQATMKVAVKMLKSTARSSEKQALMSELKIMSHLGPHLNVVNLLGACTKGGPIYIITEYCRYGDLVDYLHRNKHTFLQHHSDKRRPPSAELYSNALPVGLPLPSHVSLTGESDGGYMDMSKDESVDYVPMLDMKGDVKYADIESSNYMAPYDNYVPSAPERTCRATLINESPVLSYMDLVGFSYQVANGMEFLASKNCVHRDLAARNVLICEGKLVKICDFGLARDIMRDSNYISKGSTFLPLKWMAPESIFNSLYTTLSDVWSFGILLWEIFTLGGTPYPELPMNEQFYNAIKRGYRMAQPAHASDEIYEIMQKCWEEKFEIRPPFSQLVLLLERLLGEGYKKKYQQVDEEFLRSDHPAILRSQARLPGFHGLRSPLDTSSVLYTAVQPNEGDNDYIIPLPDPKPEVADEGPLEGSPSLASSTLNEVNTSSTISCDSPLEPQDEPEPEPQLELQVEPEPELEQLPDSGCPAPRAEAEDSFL
TEST METHOD NOTES: Inhibition of PDGFRbeta (unknown origin) at 100 nM by caliper mobility shift assay relative to control
REPORTED METRIC: inhibition (%)

[[record]]
structure_as_smiles = "CN1CCN(c2ccc(Nc3ncc(C(F)(F)F)c(Nc4ccc5cn[nH]c5c4)n3)cc2)CC1"
quantity_unit = "%"
endpoint_value = 81

[[record]]
structure_as_smiles = "CN1CCN(c2ccc(Nc3nc(Nc4ccc5cn[nH]c5c4)c4sccc4n3)cc2)CC1"
quantity_unit = "%"
endpoint_value = 21.2

[[record]]
structure_as_smiles = "Cc1cnc(Nc2ccc(N3CCN(C)CC3)cc2)nc1Nc1ccc2[nH]ncc2c1"
quantity_unit = "%"
endpoint_value = 84.1

[[record]]
structure_as_smiles = "CN1CCN(c2ccc(Nc3ncc(Br)c(Nc4ccc5cn[nH]c5c4)n3)cc2)CC1"
quantity_unit = "%"
endpoint_value = 97.6

[[record]]
structure_as_smiles = "Cc1cnc(Nc2ccc(N3CCN(C)CC3)cc2)nc1Nc1ccc2c(c1)CCC2"
quantity_unit = "%"
endpoint_value = 88.9

[[record]]
structure_as_smiles = "Cc1cnc(Nc2ccc(N3CCN(C)CC3)cc2)nc1Nc1ccc2cn[nH]c2c1"
quantity_unit = "%"
endpoint_value = 99.6

[[record]]
structure_as_smiles = "Cc1cnc(Nc2ccc(N3CCN(C)CC3)cc2)nc1Nc1ccc2c(C)n[nH]c2c1"
quantity_unit = "%"
endpoint_value = 98

[[record]]
structure_as_smiles = "Cc1cc(Nc2ccc3cn[nH]c3c2)nc(Nc2ccc(N3CCN(C)CC3)cc2)n1"
quantity_unit = "%"
endpoint_value = 7.2

[[record]]
structure_as_smiles = "Cc1cnc(Nc2ccc(N3CCN(C)CC3)cc2)nc1Nc1ccc2c(c1)CCCC2"
quantity_unit = "%"
endpoint_value = 90.4

[[record]]
structure_as_smiles = "CN1CCN(c2ccc(Nc3ncc(Cl)c(Nc4ccc5cn[nH]c5c4)n3)cc2)CC1"
quantity_unit = "%"
endpoint_value = 95.8


###

The molecules listed here are annotated with their IC50.
Test system: MG-63
TEST METHOD NOTES: Antiproliferative activity against human MG-63 cells assessed as reduction in cell viability incubated for 48 hrs by MTT assay
ASSAY CONTEXT: MG-63, 48 h
REPORTED METRIC: IC50 (nM)

[[record]]
structure_as_smiles = "CCN1CCN(c2ccc(Nc3ncc(C)c(Nc4ccc5cn[nH]c5c4)n3)cc2)CC1"
reported_metric = "IC50"
quantity_unit = "nM"
endpoint_value = 960

[[record]]
structure_as_smiles = "CCN1CCN(c2ccc(Nc3ncc(C)c(Nc4ccc5cn[nH]c5c4)n3)cc2OC)CC1"
reported_metric = "IC50"
quantity_unit = "nM"
endpoint_value = 440

[[record]]
structure_as_smiles = "COc1cc(Nc2ncc(C)c(Nc3ccc4cn[nH]c4c3)n2)ccc1N1CCN(C)CC1"
reported_metric = "IC50"
quantity_unit = "nM"
endpoint_value = 840


###

TEST METHOD NOTES: AUC(0 to infinity) in Sprague-Dawley rat at 20 mg/kg, po measured at 0.033 to 48 hrs by UHPLC-MS/MS analysis
Assay type: ADME, organism-based
Set-up: dose 20 mg/kg, time 0.033-48 hrs, route po
ASSAY CONTEXT: in vivo
REPORTED METRIC: AUC(0-inf) (ng·h/mL)

[[record]]
structure_as_smiles = "CCN1CCN(c2ccc(Nc3ncc(C)c(Nc4ccc5cn[nH]c5c4)n3)cc2OC)CC1.Cl"
quantity_unit = "ng·h/mL"
endpoint_value = 665


###

TEST METHOD NOTES: Half life in Sprague-Dawley rat at 4 mg/kg, ip measured at 0.08 to 8 hrs by UHPLC-MS/MS analysis
Format: ADME, organism-based
ASSAY CONTEXT: in vivo, time 0.08-8 hrs
REPORTED METRIC: half-life (h)

[[record]]
structure_as_smiles = "CCN1CCN(c2ccc(Nc3ncc(C)c(Nc4ccc5cn[nH]c5c4)n3)cc2OC)CC1.Cl"
endpoint_value = 2.86


###

TEST METHOD NOTES: Cmax in Sprague-Dawley rat at 20 mg/kg, po measured at 0.033 to 48 hrs by UHPLC-MS/MS analysis
Format: ADME, organism-based
Parameters: dose 20 mg/kg, time upper 48 hrs, time lower 0.033 hrs, route po
ASSAY CONTEXT: in vivo
REPORTED METRIC: Cmax

[[record]]
structure_as_smiles = "CCN1CCN(c2ccc(Nc3ncc(C)c(Nc4ccc5cn[nH]c5c4)n3)cc2OC)CC1.Cl"
endpoint_value = "75.2 ng/mL"


###

Lab note: pIC50 readings collected with Platelet-derived growth factor receptor beta (Homo sapiens, UniProt P09619) for the following molecules.
pIC50: −log10 of the molar value.
REPORTED METRIC: pIC50

[[record]]
structure_as_smiles = "Cc1cnc(Nc2ccc(N3CCNCC3)cc2)nc1Nc1ccc2cn[nH]c2c1"
endpoint_value = 6.96

[[record]]
structure_as_smiles = "Cc1cnc(Nc2ccc(N3CCOCC3)cc2)nc1Nc1ccc2cn[nH]c2c1"
endpoint_value = 8.16

[[record]]
structure_as_smiles = "Cc1cnc(Nc2ccc(C(=O)NCCN3CCOCC3)cc2)nc1Nc1ccc2cn[nH]c2c1"
endpoint_value = 7.80

[[record]]
structure_as_smiles = "Cc1cnc(Nc2ccc(N3CCS(=O)(=O)CC3)cc2)nc1Nc1ccc2cn[nH]c2c1"
endpoint_value = 7.39

[[record]]
structure_as_smiles = "CCN1CCN(c2ccc(Nc3ncc(C)c(Nc4ccc5cn[nH]c5c4)n3)cc2OC)CC1"
endpoint_value = 9.05

[[record]]
structure_as_smiles = "COc1cc(N2CCC(N3CCN(C)CC3)CC2)ccc1Nc1ncc(C)c(Nc2ccc3cn[nH]c3c2)n1"
endpoint_value = 7.25

[[record]]
structure_as_smiles = "COc1cc(Nc2ncc(C)c(Nc3ccc4cn[nH]c4c3)n2)ccc1N1CCN(C)CC1"
endpoint_value = 8.34

[[record]]
structure_as_smiles = "Cc1cnc(Nc2ccc(C(=O)N3CCN(C)CC3)cc2)nc1Nc1ccc2cn[nH]c2c1"
endpoint_value = 7.32


###

STUDY SYSTEM: UniProt:P09619
TEST METHOD NOTES: Inhibition of PDGFRbeta (unknown origin) at 100 nM by caliper mobility shift assay relative to control
REPORTED METRIC: inhibition (%)

[[record]]
structure_as_smiles = "CN1CCN(c2ccc(Nc3nc(Nc4ccc5cn[nH]c5c4)cc(C(F)(F)F)n3)cc2)CC1"
endpoint_value = 3.5

[[record]]
structure_as_smiles = "Cc1cnc(Nc2ccc(N3CCN(C)CC3)cc2)nc1Nc1ccc2[nH]ccc2c1"
endpoint_value = 78.6

[[record]]
structure_as_smiles = "Cc1cnc(Nc2ccc(N3CCN(C)CC3)cc2)nc1Nc1ccc2c(ccn2C)c1"
endpoint_value = 79.2

[[record]]
structure_as_smiles = "Cc1cnc(Nc2ccc(N3CCN(C)CC3)cc2)nc1Nc1ccc2nn(CCNC(=O)OC(C)(C)C)cc2c1"
endpoint_value = 71.1

[[record]]
structure_as_smiles = "COc1cnc(Nc2ccc(N3CCN(C)CC3)cc2)nc1Nc1ccc2cn[nH]c2c1"
endpoint_value = 55


###

TEST METHOD NOTES: Oral bioavailability in Sprague-Dawley rat at 20 mg/kg measured at 0.033 to 48 hrs by UHPLC-MS/MS analysis
Assay type: ADME, organism-based
ASSAY CONTEXT: in vivo, time 0.033-48 hrs
REPORTED METRIC: bioavailability

[[record]]
structure_as_smiles = "CCN1CCN(c2ccc(Nc3ncc(C)c(Nc4ccc5cn[nH]c5c4)n3)cc2OC)CC1.Cl"
reported_metric = "bioavailability"
endpoint_value = "62.9%"


###

The molecules listed here are annotated with their inhibition.
STUDY SYSTEM: UniProt:P09619
TEST METHOD NOTES: Inhibition of PDGFRbeta (unknown origin) at 100 nM by caliper mobility shift assay relative to control
REPORTED METRIC: inhibition

[[record]]
structure_as_smiles = "Cc1cnc(Nc2ccc(N3CCN(C)CC3)cc2)nc1Nc1cccc2[nH]ccc12"
reported_metric = "inhibition"
endpoint_value = "90.3%"

[[record]]
structure_as_smiles = "CN1CCN(c2ccc(Nc3ncc(F)c(Nc4ccc5cn[nH]c5c4)n3)cc2)CC1"
reported_metric = "inhibition"
endpoint_value = "94.4%"

[[record]]
structure_as_smiles = "CCOC(=O)c1cnc(Nc2ccc(N3CCN(C)CC3)cc2)nc1Nc1ccc2cn[nH]c2c1"
reported_metric = "inhibition"
endpoint_value = "30.7%"

[[record]]
structure_as_smiles = "Cc1cnc(Nc2ccc(N3CCN(C)CC3)cc2)nc1Nc1ccc2cccnc2c1"
reported_metric = "inhibition"
endpoint_value = "91%"

[[record]]
structure_as_smiles = "Cc1cnc(Nc2ccc(N3CCN(C)CC3)cc2)nc1Nc1ccc2nccnc2c1"
reported_metric = "inhibition"
endpoint_value = "74.1%"

